Test system: OVCAR-8 ovarian
Test: NCI tumour cell line growth inhibition, 48 h
Listed compounds paired with reported TGI

Reference set (3 entries):
>>> result_value("CN(C)CCC(/C=C/c1ccccc1)=N\\Nc1c(F)c(F)c(F)c(F)c1F")
"> 100 µM"
>>> result_value("c1ccc(-c2nc3ccccc3[nH]2)c(OCCCCCOc2ccccc2-c2nc3ccccc3[nH]2)c1")
"53 µM"
>>> result_value("CCCCCCC1CCCCN1C(c1ccccc1)C(O)c1ccccc1 (stereo unspecified)")
"31.5 µM"

Jot down TGI (OVCAR-8 ovarian) of O=S1(=O)CS(=O)(=O)OCCCCCO1 .
> 100 µM

Jot down TGI (OVCAR-8 ovarian) of CC(C)(C)C(=O)C(N)C(=O)C(C)(C)C .
> 100 µM

====

System: IGROV1 ovarian
Assay: NCI tumour cell line growth inhibition, 48 h
readout_label: TGI

>>> result_value("COc1cc2c(cc1OCCN1CCN(CCOc3cc4c(cc3OC)C(=O)N3CCC[C@H]3C=N4)CC1)N=C[C@@H]1CCCN1C2=O")
"> 78.3 µM"
>>> result_value("CC(CSc1nc2c(c(=N)n1-c1ccccc1)c(=S)n(-c1ccccc1)c(=S)n2-c1ccccc1)CN(C)C (stereo not given)")
"2.79 µM"
>>> result_value("COc1ccc2c(c1)CCC1C2CCC2(C)C(NC(=O)CCCCC3CCSS3)CCC12 (stereo not given)")
"> 100 µM"
>>> result_value("C=C(C)C1CCC2(C)C1CCC1(C)C2CCC2C3(C)C4OC(OC4=O)C(C)(C)C3CCC21C (stereo not given)")
"> 100 µM"
>>> result_value("CN(C)CCC(/C=C/c1ccccc1)=N\\Nc1c(F)c(F)c(F)c(F)c1F")
"> 100 µM"

Indicate its recorded TGI; the compound in question is O=C(NCCNC1=CC(=O)c2nc3ccccc3c3ccnc1c23)c1cnccn1
> 100 µM

Indicate its recorded TGI; the compound in question is COc1ccc(C2C(C(=O)O)=C(COC(C)=O)Oc3cc4c(cc32)OCO4)c(OC)c1 (stereo not given)
> 100 µM

Indicate its recorded TGI; the compound in question is O=C(Nc1ccc(-n2cc(-c3ccncc3)c(-c3ccc(Cl)c(O)c3)n2)cc1)c1ccc(Cl)c(Cl)c1
> 100 µM

Indicate its recorded TGI; the compound in question is Cc1cc(C)n(C(C)(C(=O)Cc2ccccc2)n2nc(C)cc2C)n1
> 100 µM

Indicate its recorded TGI; the compound in question is COc1cc(C(=O)/C=C/c2c(C)n([O-])c3ccc(Cl)cc3[n+]2=O)cc(OC)c1OC
> 100 µM

Indicate its recorded TGI; the compound in question is COC(=O)c1sc(=S)c2sc(C(=O)OC)c(C(=O)OC)c2c1C(=O)OC
> 100 µM

====

Test system: K-562 leukemia
Experiment: NCI tumour cell line growth inhibition, 48 h
readout_label: TGI

Reference set (5 entries):
>>> result_value("CN(Cc1cnc2nc(N)nc(N)c2n1)c1c(Cl)cc(C(=O)NC(CCC(=O)O)C(=O)O)cc1Br (stereo unspecified)")
"> 100 µM"
>>> result_value("Cn1c(COC(=O)NC2CCCCC2)c(COC(=O)NC2CCCCC2)c2ccc3ccccc3c21")
"> 100 µM"
>>> result_value("O=C(Nc1c(Cl)cc([N+](=O)[O-])cc1Cl)C(=O)C(C(=O)c1ccncc1)C1OC(=O)c2ccccc21 (stereo unspecified)")
"> 100 µM"
>>> result_value("Fc1cccc(C2ON=C(c3ccccc3)N2C23CC4CC(CC(C4)C2)C3)c1 (stereo unspecified)")
"> 10 µM"
>>> result_value("CN1CCC(C(=O)Nc2n[nH]c3nnc(-c4ccccc4)cc23)CC1")
"> 25 µM"

Next up:
Indicate its recorded TGI; the molecule in question is COc1cc(COC(=O)N(C)[C@@H](Cc2ccccc2)C(=O)O)c([N+](=O)[O-])cc1OC
> 100 µM

====

Test system: MDA-MB-435
Test: NCI tumour cell line growth inhibition, 48 h
readout_label: TGI (µM)
The figure you give is taken to be in µM; do not add the unit.

>>> result_value("COc1cc2c(cc1OC)C(Sc1ccc(Cl)cc1)c1c(nc(N)c(C#N)c1N)O2 (stereo not given)")
2.85

Next up:
Indicate its recorded TGI; the compound in question is Clc1ccc(C2=CC(c3ccccc3)N3C(=N[C@H]4CCCC[C@@H]43)N2)cc1 (stereo not given in full)
20.4

====

Listed compounds paired with reported GI50
Tested on: K-562 leukemia
Experiment: NCI tumour cell line growth inhibition, 48 h

Reference set (3 entries):
>>> result_value("COC(=O)c1sc(=S)c2sc(C(=O)OC)c(C(=O)OC)c2c1C(=O)OC")
"36.2 µM"
>>> result_value("COc1cc(C(=O)Nc2ccc(-c3nc4ccccc4[nH]3)cc2)cc(OC)c1OC")
"7.39 µM"
>>> result_value("O=C(/C=C/c1ccccn1)c1ccccc1")
"2.53 µM"

Indicate its recorded GI50; the compound in question is c1ccc(-c2nc3ccccc3[nH]2)c(OCCCCCOc2ccccc2-c2nc3ccccc3[nH]2)c1
4.35 µM

Indicate its recorded GI50; the compound in question is O=C(NCCNC1=CC(=O)c2nc3ccccc3c3ccnc1c23)c1cnccn1
33.6 µM

Indicate its recorded GI50; the compound in question is OCCN1CCCN(CCCN2c3ccccc3Sc3ccc(C(F)(F)F)cc32)CC1
1.57 µM

Indicate its recorded GI50; the compound in question is O=C([CH-]C(=O)c1ccccc1)c1ccccc1.[CH2-]C.[CH2-]C.[Tl+3]
9.92 µM

Indicate its recorded GI50; the compound in question is Cc1nc2sc(C(=O)Nc3cccc(Cl)c3)c(N)c2cc1C(O)c1ccccc1 (stereo unspecified)
0.488 µM

Indicate its recorded GI50; the compound in question is COc1ccc(-c2nc3sccn3c2/C=C/C(=O)c2cc(OC)c(OC)c(OC)c2)cc1
2.43 µM

Indicate its recorded GI50; the compound in question is C#CCN(CCCOc1ccc(Cl)cc1Cl)CCCSC(=O)CCCCCN1/C(=C\C=C2/CCCC(/C=C/C3=[N+](CCCCCC(=O)[O-])c4ccccc4C3(C)C)=C2Cl)C(C)(C)c2ccccc21
0.667 µM

Indicate its recorded GI50; the compound in question is O=[N+]([O-])/C(=C/C=C/c1ccccc1)c1ccccc1
1.7 µM

====

System: NCI/ADR-RES ovarian
Experiment: NCI tumour cell line growth inhibition, 48 h
Listed compounds paired with reported GI50

Indicate its recorded GI50; the compound in question is O=C(Nc1ccc(-n2cc(-c3ccncc3)c(-c3ccc(Cl)c(O)c3)n2)cc1)c1ccc(Cl)c(Cl)c1
4.91 µM

Indicate its recorded GI50; the compound in question is O=C(NCCNC1=CC(=O)c2nc3ccccc3c3ccnc1c23)c1cnccn1
96.6 µM

Indicate its recorded GI50; the compound in question is CCCCCCC1CCCCN1C(c1ccccc1)C(O)c1ccccc1 (stereo not drawn)
10.1 µM

====

System: HS 578T breast
Assay: NCI tumour cell line growth inhibition, 48 h; in the data active means GI50 below about 0.43 µM; inactive means the rest
Please state which outcome applies, choosing from 1.0 for active, 0.0 for inactive

Solved entries (count: 4):
>>> assigned_label("COc1ccc(-c2nn(-c3cccc(Cl)c3)cc2-c2c(C#N)c(=O)n3[nH]c(-c4ccc(C)o4)nc3c2C#N)cc1")
0.0
>>> assigned_label("Cc1nc2sc(C(=O)Nc3cccc(Cl)c3)c(N)c2cc1C(O)c1ccccc1 (stereo not given)")
1.0
>>> assigned_label("COc1ccc2cc1Oc1ccc(cc1)CC1c3c(cc(OC)c4c3Oc3cc5c(cc3O4)CCNC5C2)CCN1C (stereo not given)")
0.0
>>> assigned_label("CCCCCCC1CCCCN1C(c1ccccc1)C(O)c1ccccc1 (stereo not given)")
0.0

API: the following record is the query input.
Test call, this molecule: COc1ccc2c(c1)CCC1C2CCC2(C)C(NC(=O)CCCCC3CCSS3)CCC12 (stereo not given)
0.0

====

Tested on: SK-MEL-5 melanoma
Assay: NCI tumour cell line growth inhibition, 48 h
Listed compounds paired with reported TGI

Reference set (3 entries):
>>> result_value("COc1ccc2c3c(c4cc(OC)c(OC)cc4c2c1)CN1CCC[C@H]1[C@@H]3O")
"0.398 µM"
>>> result_value("O=C(NCCOC(=O)CCCCCCCCC(=O)OCCNC(=O)NC(=O)c1cn(Cc2ccccc2)c(=O)[nH]c1=O)NC(=O)c1cn(Cc2ccccc2)c(=O)[nH]c1=O")
"> 100 µM"
>>> result_value("Cc1cc(C)c(C2=NO[C@@H]3[C@H]2C(=O)C=C2N(Cc4ccccc4)CCO[C@@]23O)c(C)c1")
"> 100 µM"

Indicate its recorded TGI; the compound in question is COc1cc(/C=C/C(=O)/C=C/c2ccc(-n3ccnc3)cc2)ccc1O
12 µM

Indicate its recorded TGI; the compound in question is COc1ccc(N=C2C(=O)Nc3ccc(Br)cc32)cc1
23.3 µM

Indicate its recorded TGI; the compound in question is C=C(/C=C/C=C(\CO)CCC=C(C)C)[C@H]1CCC2([C@H](CCCO)/C(=C(/C)C=O)CC[C@]2(C)O)[C@H]1O (stereo partly drawn)
> 100 µM

Indicate its recorded TGI; the compound in question is O=C(O)C1C2OC(C(Br)C2Br)C1C(=O)O (stereo not drawn)
> 100 µM

Indicate its recorded TGI; the compound in question is Cc1cc(N(CCC#N)CCC#N)ccc1/C=C1N=C(/C=C\c2ccccc2)N(c2ccc(C(=O)O)cc2)C\1=O
> 100 µM

Indicate its recorded TGI; the compound in question is O=C([CH-]C(=O)c1ccccc1)c1ccccc1.[CH2-]C.[CH2-]C.[Tl+3]
50.1 µM

Indicate its recorded TGI; the compound in question is COc1ccc(S(=O)(=O)NNS(C)(=O)=O)cc1OC
> 100 µM

Indicate its recorded TGI; the compound in question is CN(Cc1cnc2nc(N)nc(N)c2n1)c1c(Cl)cc(C(=O)NC(CCC(=O)O)C(=O)O)cc1Br (stereo not drawn)
> 100 µM

Indicate its recorded TGI; the compound in question is CCn1c(-c2cc3ccccc3cc2OC(C)=O)n[nH]c1=S
38.2 µM

Indicate its recorded TGI; the compound in question is C[N+](C)([O-])C12CC3CC(CC(C3)C1)C2
> 100 µM
